Test system: full-length beta-Catenin (Uniprot ID P35222) (Homo sapiens, UniProt P35222)
Construct: 10 nM full-length beta-Catenin (Uniprot ID P35222)
Sequence (P35222 whole entry): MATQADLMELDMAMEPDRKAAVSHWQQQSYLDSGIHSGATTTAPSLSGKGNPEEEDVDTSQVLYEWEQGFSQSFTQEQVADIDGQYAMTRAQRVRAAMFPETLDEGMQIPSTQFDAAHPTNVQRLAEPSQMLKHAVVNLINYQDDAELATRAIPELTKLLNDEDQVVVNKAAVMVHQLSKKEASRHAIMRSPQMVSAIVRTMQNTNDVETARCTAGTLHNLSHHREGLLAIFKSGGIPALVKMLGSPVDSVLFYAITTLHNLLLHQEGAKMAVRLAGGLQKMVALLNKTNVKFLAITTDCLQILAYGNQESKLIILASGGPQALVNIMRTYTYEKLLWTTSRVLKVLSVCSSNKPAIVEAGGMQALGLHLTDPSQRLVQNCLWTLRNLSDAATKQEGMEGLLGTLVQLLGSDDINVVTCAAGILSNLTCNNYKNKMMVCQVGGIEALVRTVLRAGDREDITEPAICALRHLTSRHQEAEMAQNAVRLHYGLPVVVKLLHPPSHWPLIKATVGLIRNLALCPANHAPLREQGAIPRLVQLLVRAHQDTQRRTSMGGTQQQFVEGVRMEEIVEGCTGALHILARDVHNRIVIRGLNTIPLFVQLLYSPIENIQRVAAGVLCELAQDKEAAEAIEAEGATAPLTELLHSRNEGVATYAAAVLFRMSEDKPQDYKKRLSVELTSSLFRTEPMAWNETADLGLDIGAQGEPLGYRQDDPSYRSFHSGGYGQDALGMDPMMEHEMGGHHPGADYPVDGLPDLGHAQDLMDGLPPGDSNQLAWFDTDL
Assay comment: Fluorescence polarization IC50 (beta-catenin / 5FAM-TCF4 10-53 competition)
Format: binding
Experimental setup: read-out: FP EC50
Readout kind: pIC50
On this scale, pIC50 is minus log10 of a concentration expressed in M (mol/L).

CC(=O)N1CCC[C@]12CC=CCCCC1(CCCC=CCCCCCC[C@@](C)(C(=O)N[C@@H](Cc3ccccc3)C(=O)N[C@@H](Cc3csc4ccccc34)C(N)=O)NC(=O)[C@H](CC(N)=O)NC(=O)[C@H](Cc3ccccc3)NC(=O)[C@H](C)NC(=O)[C@H](C)NC(=O)[C@H](CCC(=O)O)NC(=O)[C@H](CC(=O)O)NC1=O)NC(=O)[C@H](CC(C)(C)C)NC(=O)[C@H](CC(=O)O)NC2=O (stereo partly shown) [I-712]	7.04
CC(=O)N1CCC[C@]12CC=CCCCC1(CCCC=CCCCCCC[C@@](C)(C(=O)N[C@@H](Cc3ccsc3)C(=O)N[C@@H](Cc3csc4ccccc34)C(=O)N[C@@H](CCC(N)=O)C(N)=O)NC(=O)[C@H](CC(N)=O)NC(=O)[C@H](Cc3ccccc3)NC(=O)[C@H](C)NC(=O)[C@H](C)NC(=O)[C@H](CC(=O)O)NC(=O)[C@H](CC(=O)O)NC1=O)NC(=O)[C@H](CC(C)(C)C)NC(=O)[C@H](CC(=O)O)NC2=O (stereo partly shown) [I-679]	8.15
CC[C@H](C)[C@@H]1NC(=O)[C@H](CC(=O)O)NC(=O)[C@]2(CC=CCCCC3(CCCC=CCCCCCC[C@@](C)(C(=O)N[C@@H](Cc4ccccc4)C(=O)N[C@@H](Cc4csc5ccccc45)C(=O)N[C@@H](CCC(N)=O)C(N)=O)NC(=O)[C@H](CCC(N)=O)NC(=O)[C@H](Cc4ccccc4)NC(=O)[C@H](CC(C)C)NC(=O)[C@H](C)NC(=O)[C@H](CCC(=O)O)NC(=O)[C@H](CC(=O)O)NC3=O)NC1=O)CCCN2C(C)=O (stereo partly shown) [I-659]	6.37
CC(=O)N1CCC[C@]12CC=CCCCC1(CCCC=CCCCCCC[C@@](C)(C(=O)N[C@@H](Cc3ccccc3)C(=O)N[C@@H](Cc3csc4ccccc34)C(N)=O)NC(=O)[C@H](CC(N)=O)NC(=O)[C@H](Cc3ccccc3)NC(=O)[C@H](C)NC(=O)[C@H](C)NC(=O)[C@H](CCC(=O)O)NC(=O)[C@H](CC(=O)O)NC1=O)NC(=O)[C@H](CC1CCCCC1)NC(=O)[C@H](CC(=O)O)NC2=O (stereo partly shown) [I-627]	6.47
CC(=O)N1CCC[C@]12CC=CCCCC1(CCCC=CCCCCCC[C@@](C)(C(=O)N[C@@H](Cc3ccccc3)C(=O)N[C@@H](Cc3csc4ccccc34)C(N)=O)NC(=O)[C@H](CC(N)=O)NC(=O)[C@H](Cc3ccccc3)NC(=O)[C@H](C)NC(=O)[C@H](C)NC(=O)[C@H](CCC(=O)O)NC(=O)[C@H](CC(=O)O)NC1=O)NC(=O)[C@H](CC(C)C)NC(=O)[C@H](CC(=O)O)NC2=O (stereo partly shown) [I-624]	6.56
CC[C@H](C)[C@@H]1NC(=O)[C@H](CC(=O)O)NC(=O)[C@]2(CC=CCCCC3(CCCC=CCCCCCC[C@@](C)(C(=O)N[C@@H](Cc4ccccc4)C(=O)N[C@@H](Cc4csc5ccccc45)C(=O)N[C@@H](CCC(N)=O)C(N)=O)NC(=O)[C@H](CCC(N)=O)NC(=O)[C@H](Cc4ccccc4)NC(=O)[C@H](C)NC(=O)[C@H](C)NC(=O)[C@H](CCC(=O)O)NC(=O)[C@H](CC(=O)O)NC3=O)NC1=O)CCCN2S(C)(=O)=O (stereo partly shown) [I-710]	7.14
CC(=O)N1CCC[C@]12CC=CCCCC1(CCCC=CCCCCCC[C@@](C)(C(=O)N[C@@H](Cc3ccccc3)C(=O)N[C@@H](Cc3csc4ccccc34)C(=O)N[C@@H](Cc3c[nH]cn3)C(N)=O)NC(=O)[C@H](CC(N)=O)NC(=O)[C@H](Cc3ccccc3)NC(=O)[C@H](C)NC(=O)[C@H](C)NC(=O)[C@H](CC(=O)O)NC(=O)[C@H](CC(=O)O)NC1=O)NC(=O)[C@H](CC(C)C)NC(=O)[C@H](CC(=O)O)NC2=O (stereo partly shown) [I-564]	7.44
CC[C@H](C)[C@@H]1NC(=O)[C@H](CC(=O)O)NC(=O)[C@]2(CC=CCCCC3(CCCC=CCCCCCC[C@@](C)(C(=O)N[C@@H](Cc4ccccc4)C(=O)N[C@@H](Cc4csc5ccccc45)C(=O)N[C@@H](CO)C(N)=O)NC(=O)[C@H](CCC(N)=O)NC(=O)[C@H](Cc4ccccc4)NC(=O)[C@H](C)NC(=O)[C@H](C)NC(=O)[C@H](CCC(=O)O)NC(=O)[C@H](CC(=O)O)NC3=O)NC1=O)CCCN2C(C)=O (stereo partly shown) [I-640]	7.06

Prompt line: Find pIC50 (full-length beta-Catenin (Uniprot ID P35222) (Homo sapiens, UniProt P35222)) for the entry CC(=O)N1CCC[C@]12CC=CCCCC1(CCCC=CCCCCCC[C@@](C)(C(=O)N[C@@H](Cc3ccccc3)C(=O)N[C@@H](Cc3csc4ccccc34)C(=O)N[C@@H](Cc3c[nH]cn3)C(N)=O)NC(=O)[C@H](CCC(N)=O)NC(=O)[C@H](Cc3ccccc3)NC(=O)[C@H](C)NC(=O)[C@H](C)NC(=O)[C@H](CC(=O)O)NC(=O)[C@H](CC(=O)O)NC1=O)NC(=O)[C@H](CC(C)C)NC(=O)[C@H](CC(=O)O)NC2=O (stereo partly shown) [I-560]
Response line: 7.09

Prompt line: Find pIC50 (full-length beta-Catenin (Uniprot ID P35222) (Homo sapiens, UniProt P35222)) for the entry CC[C@H](C)[C@@H]1NC(=O)[C@H](CC(=O)O)NC(=O)[C@]2(CC=CCCCC3(CCCC=CCCCCCC[C@@](C)(C(=O)N[C@@H](Cc4ccccc4)C(=O)N[C@@H](Cc4csc5ccccc45)C(=O)N[C@H](C(N)=O)C(C)C)NC(=O)[C@H](CCC(N)=O)NC(=O)[C@H](Cc4ccccc4)NC(=O)[C@H](C)NC(=O)[C@H](C)NC(=O)[C@H](CCC(=O)O)NC(=O)[C@H](CC(=O)O)NC3=O)NC1=O)CCCN2C(C)=O (stereo partly shown) [I-646]
Response line: 6.34

These data points were gathered from patent US20240116985A1.
